Assay: protease stability score; higher = more stable; yeast display proteolysis, trypsin and chymotrypsin;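 further: relative to predicted unfolded state with 0 unfolded-like and 1 meaning tenfold more protease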
Reported protease stability score by item:
// no unit, no text: just the number

{"Chain": "SEDEETVHEWFEVLRRDWATGNEENLMKLLDPHARLIIDGRELHGREHIIEFLRRHREHLGVTNIHVEFHIDNRKIFNGKVEVKGTLTIRINGKEEEREVILIIEKIDGRWYIKNLEIR", "Observable": "protease stability score", "Observed value": 0.552}
{"Chain": "DEDHRDMEEFMRIFIDSLKTGDEESLARMLDPNARTKVNGVDFHGRESALEVLRRLWEEFGVDHMELKSREVEVQGNKVHIHLVVTLIQGDKHIHVRYHINTIKVDGRWLLHEINVEIR", "Observable": "protease stability score", "Observed value": 1.36}
{"Chain": "DEDDNDMEEMVRLFDRDLHTGNEDLLTELADPHARFDINGVELHGMHEFVTIWLEIRFILRDSRVEHIHIQGDKAHIKSRLHGEMIFNGRTTIVHSEVHIYFEKIDGRWMIHRHIVK", "Observable": "protease stability score", "Observed value": 0.102}
{"Chain": "TEEEEHIRRLAEELMHNIRTGDEDTLVDLFDPDTKLHVHQGDKEIVFHGMEEIFDWWEKLLSEIRIEIRIRSIKYIGDKAHVHTEVIWRFNGREHRIESEIEFVLINGKVERIHISFI", "Observable": "protease stability score", "Observed value": 2.27}
{"Chain": "DELEEKIHRWAELFLKMVLTGNEEFFRHLFDPDARSDINGVRVIGREDMDEVLKFWLDHLRFEHWVYTEVRIYDGRMEVHTRHDIDVNGVLYRRQMRIHLDVVDGRVKEASITRE", "Observable": "protease stability score", "Observed value": 1.37}
{"Chain": "DEDEETITRTLEFQRESLRTGDWKFIHRLFDPDARFLINGRDRHGRDLLIDILRKLGVEKINLHVHRMSYVGDKMRVETELVVGDFIFDTRLFEEKVNGKWLMRSMEIH", "Observable": "protease stability score", "Observed value": 0.735}
{"Chain": "SEEKEIAERFIEMALQVWLTGDERSMVDMVDPHVLNIVGDKEHHGREILLKFLHDFKERFPNVRVKHRDVHIDLQGDKMEVRIDGRIHFDGKQFRLEIIIITTKIDGRWRVTHWEVRIE", "Observable": "protease stability score", "Observed value": 2.19}
{"Chain": "DHDDERVEHFARHWVHNFLTGDWKKLTDQVDPHVRLDVNGQKFHGREAIREWLEHILREIRVHDLKFDHIHLQGDYTIIEGTQIIHYNGRTEIRKTRIEFIIVDGKFQEIRIKTL", "Observable": "protease stability score", "Observed value": 1.43}
{"Chain": "DEDDEAAEMAVRFFIEILLTGNENIHSKLLDPNVKVNIGEFESIGRKEVEKTFKEFVHHMWIRHIEVHKWSVYDGQVDVESRLDGQVNGQHVNVEVLIIIVKINGKWFLRSLDFR", "Observable": "protease stability score", "Observed value": 1.71}
{"Chain": "DHQEHIIKVSLEILLESARTGDERSLERLFDPNVRIINENEERHGREALEILLKRIDHIHHLNIRDTRIQGDFLITEVHVRINVNGVHIQNDMVLYAWKVNGRWHIRSIEFK", "Observable": "protease stability score", "Observed value": 1.39}

Value of protease stability score reported for the sequence `SEDHEVARDIMEILLHLYLTGNEEDLKQFFDPHVRLVIGDKNIHGREEVVNHLKRILDRIPNVRVKHFTLHDIRIIGDKIYLNTEIHVKINGRDHRSETRWVILKVDGVWHLHSVEVG` is 2.05
